# Tested on: MDA-MB-468 breast
# PROTOCOL: NCI-60 one-dose screen, 48 h (100 = growth as untreated, 0 = no growth, -100 = all killed)
# CONDITION DETAILS: 10 µM unless noted
About 83,000 compounds went through this panel and 20% of them were active in at least one assay; those are over-represented in the sample as a whole.
Label no if growth falls below 60%; label yes in every other case.

Decide: growth of Nc1c(C(=O)Nc2ccccc2)sc2nc3c(cc12)CCCC3 >= 60%?
no

// inclusive: growth at least 60%? input: O=C(CN1CCN(C(=O)c2ccccc2)CC1)Nc1ccccc1SCc1ccccc1
no

Please check the record COc1ccc(-c2cc(/C=C3\C(=O)Nc4ccc(OC)cc43)[nH]n2)cc1 and state if its growth is at or above 60%.
no

Determine whether this compound has growth no lower than 60%: CCCCOc1ccc(/C=C2/SC(N3CCCC3)=NC2=O)cc1
yes

Assess whether reported growth for CCC(c1cccc(O)c1)C(CC)c1cccc(O)c1 (configuration not stated) sits at 60% or higher.
no

Does the compound COc1cccc(N2CCN(c3ncnc4cc[nH]c34)CC2)c1 have recorded growth that is 60% or more?
no

Please indicate if the recorded growth for COc1ccc(Cn2cc3c(c2-c2cc(OC)c(OC)c(OC)c2)CCc2cnoc2-3)cc1 meets or exceeds 60%.
no

Entry Cc1nc2cncc(C#Cc3cncc(C(=O)Nc4ccc(CN5CCN(C)CC5)c(C(F)(F)F)c4)c3)c2nc1C : is its growth no less than 60%?
no

API: above_or_equal(metric=growth, cutoff=60%) for item CCN(CC)CCNc1ncnc2c1cnn2-c1ccc(Cl)cc1
no

Answer whether growth of CC1(C)Nc2cccc3c(N=Nc4ccc(N=Nc5ccccc5)c5ccccc45)ccc(c23)N1 is greater than or equal to 60%.
yes

Could you verify whether the entry CCCCOc1ccc(/C=N/Nc2cc(C)nc3ccc(Br)cc23)cc1 shows growth of no less than 60%?
no

Evaluate CC(C)(C)c1cnc(CSc2cnc(NC(=O)C3CCNCC3)s2)o1 : growth at minimum 60%?
no

Please indicate if the recorded growth for CC1C(=O)CCCC1=O meets or exceeds 60%.
yes

Determine whether this compound has growth no lower than 60%: COc1ccc([C@H]2[C@@H](F)C(=O)N2c2cc(OC)c(OC)c(OC)c2)cc1F
no

Kindly determine if growth recorded for CC1CCN(CC(=O)Nn2c(COc3ccccc3)nc3ccccc3c2=O)CC1 is above or exactly 60%.
no

# bool: growth of COc1cc(C2CC(c3cccc(Nc4ccnc5cc(Cl)ccc45)c3)=NN2c2ccc(Cl)cc2)cc(OC)c1OC (configuration not stated) >= 60%
yes

# bool: growth of CCOC(=O)c1cc(C(=O)c2ccc(OC)c(OC)c2)n2c1ccc1ccccc12 >= 60%
yes

Check if growth >= 60% (inclusive). Item: CCCCCCn1c(=N)n(CC(O)COc2cccc(C)c2)c2ccccc21 (configuration not stated)
no

Please indicate if the recorded growth for O=C1NC(=S)S/C1=C\c1cc(Br)ccc1O meets or exceeds 60%.
yes

Please indicate if the recorded growth for CCOC(=O)CC(c1ccccc1)C(C#N)c1ccccc1 (configuration not stated) meets or exceeds 60%.
yes

Dear colleague, could you confirm whether O=C(CCNNC(=O)c1ccncc1)NCc1ccccc1 has growth at or above 60%?
yes

Would you say O=C1[C@@H]2Cc3c([nH]c4ccccc34)[C@H](c3ccc(Cl)cc3)N2C(=O)CN1C1CCN(Cc2ccccc2)CC1 shows growth at minimum 60%?
no
